These entries and their values trace back to PubChem BioAssay AID743473.

pIC50 data for Collagenase 3 (Homo sapiens) follow.
pIC50: −log10 of the molar value.

Just so you know, measured pIC50 for O=C(O)CCC(=O)c1c[nH]c2ccccc12 came out at < 4.00

Short answer for CCOc1ccc(NC(=O)CC2SC(=O)N(c3ccccc3)C2=O)cc1 (centres undefined) : pIC50 was 4.45

Reported pIC50 for O=C1NC(=O)C(Cc2ccc(Cl)cc2)(c2ccccc2)N1 (centres undefined) was < 4.00

COc1cccc(C(=O)NNC(=O)C(=O)Nc2ccc(C)c(Cl)c2)c1 yielded pIC50 of < 4.00

---

biological target: MMP14; assay: metalloprotease panel inhibitors: MMPs, meprins, late-stage follow-up, selectivity assay for ADAM10 and ADAM17 inhibitor project, biochemical, QFRET, MMP1/2/8/9/10/13/14, Meprin A/B (AID 743473); details: QFRET peptide cleavage, MCA fluorescence
Give IC50 for every item shown.

Per the records, this compound ( O=C1NC(=O)C(Cc2ccc(Cl)cc2)(c2ccccc2)N1 (centres undefined) ) has IC50 equal to > 100 µM

Looking up CCOc1ccc(NC(=O)CC2SC(=O)N(c3ccccc3)C2=O)cc1 (centres undefined) , I found its IC50 recorded as 36.9 µM

# IC50 (compound: COc1cccc(C(=O)NNC(=O)C(=O)Nc2ccc(C)c(Cl)c2)c1 ) is > 100 µM

# IC50 of O=C(O)CCC(=O)c1c[nH]c2ccccc12 = > 100 µM
